# Activity per record follows
system: OVCAR-3; experiment: Cytotoxicity against human OVCAR3 cells assessed as cell growth at 10 uM; type: cell-based; details: ovcar-3, 10 µM
Please state the number and follow it with the unit.

CN1C(=O)c2cc(C(N)=O)nc3c(Cl)cc(Cl)c1c23 | 108.21%
COC(=O)c1cc(C(=O)OC)c2c(Cl)cc(N)c(Cl)c2n1 | 109.55%
CN1C(=O)c2cc(C(=O)NCc3ccccc3)nc3c(Cl)cc(Cl)c1c23 | 103.52%
COC(=O)c1cc(C(=O)OC)c2c(Cl)cc(N)cc2n1 | 106.32%

*Q* Missing value: Activity, OVCAR-3, entry COC(=O)c1cc(C(=O)OC)c2c(Cl)cc(N(C)C)cc2n1 . Fill in?
*A* 115.27%
